Measured TGI values are reported for all entries that follow.
test system: SF-268 CNS; assay: NCI tumour cell line growth inhibition, 48 h

[
  {
    "compound": "CC(=O)N1C(Nc2ccccc2)CCN1c1ccccc1 (stereo not given)",
    "TGI": "> 10 µM"
  },
  {
    "compound": "NC(=O)C(N)CC12CC3CC(CC(C3)C1)C2 (stereo not given)",
    "TGI": "92.5 µM"
  },
  {
    "compound": "COc1ccc2cc(C(=O)CCC(=O)O)ccc2c1",
    "TGI": "> 100 µM"
  },
  {
    "compound": "COc1ccc(C2C(C#N)=C(N)Oc3c2sc2c(F)cccc32)cc1 (stereo not given)",
    "TGI": "19.6 µM"
  },
  {
    "compound": "C=CCN1CN(C2CCCCC2)CSC1=S",
    "TGI": "11.8 µM"
  },
  {
    "compound": "COc1cc(-c2cc(/C=C3\\C(=O)Nc4cc(Cl)ccc43)[nH]n2)cc(OC)c1OC",
    "TGI": "29.1 µM"
  },
  {
    "compound": "COc1ccc(C(=O)O)c(Br)c1OCc1ccccc1",
    "TGI": "> 100 µM"
  },
  {
    "compound": "Oc1c(I)cc(I)cc1CNCCN(Cc1ccccn1)Cc1ccccn1",
    "TGI": "2.4 µM"
  },
  {
    "compound": "CCOC(=O)Cn1c(=O)[nH]c(=O)c2c1ncn2Cc1ccccc1",
    "TGI": "> 100 µM"
  },
  {
    "compound": "Nc1nc(Cl)nc(NCc2ccccc2)n1",
    "TGI": "> 100 µM"
  },
  {
    "compound": "COc1ccc(N2C(Cl)C(=O)C2c2c[nH]c3ccccc23)cc1 (stereo not given)",
    "TGI": "> 100 µM"
  },
  {
    "compound": "C/C(=C1\\SC(=NCc2cccs2)NC1=O)c1ccc2ncccc2c1",
    "TGI": "> 25 µM"
  },
  {
    "compound": "CC1=CC(O)(c2ccccc2)C(N2CCOCC2)N1O (stereo not given)",
    "TGI": "> 100 µM"
  },
  {
    "compound": "CCN(CC)CCOCCn1c2c(c3ccccc31)CCCC2",
    "TGI": "> 100 µM"
  },
  {
    "compound": "O=C1Nc2ccccc2C12CCCC2",
    "TGI": "> 100 µM"
  }
]
